- target_or_system: Cytochrome P450 2C9 (Homo sapiens)
- experiment_notes: Cytochrome panel assay with activity outcomes
- protocol_conditions: recombinant CYP, pro-luciferin dealkylation, luminescence, p450-cyp2c9; series mostly up to 57.1 µM
Among all 16,000 compounds or so, about 4,000 (25%) were called active. About 26% were inconclusive and are not listed. Calls follow the shape of the dose curve; as a rule, active = well fitted curve in the direction sought with a large enough effect; inconclusive = small, poorly fitted or top-dose-only effect, or effect the other way; inactive = no such curve, though single readings can be large or run the other way. A selection follows.
Classes to choose from: active, inactive

What outcome does the record of this test show for CCCN1C[C@@H](CSC)C[C@H]2c3cccc4[nH]cc(c34)C[C@@H]21 ?
inactive

Query: recorded result category for N=C(N)SCCN in this test
inactive

// outcome(item) with item = COC(=O)CSc1nnc(-c2ccccc2OC)n1-c1ccc(C)cc1
inactive

Given O=C(O)Cc1ccc(O)c(O)c1 , state the outcome it received in this test.
inactive

Entry CCOc1ccc(-c2nnc3ccc(SCC(=O)NCc4ccco4)nn23)cc1 : call = ?
active

What is the recorded call for this molecule in the test? CCn1c(SCC(=O)OC)nnc1C1CCCCC1
inactive

Identify the outcome logged in this assay for the molecule shown: COc1cc(CC(=O)O)ccc1O
inactive

---

- target_or_system: Cytochrome P450 2C9 (Homo sapiens)
- experiment_notes: Cytochrome panel assay with activity outcomes
- protocol_conditions: recombinant CYP, pro-luciferin dealkylation, luminescence, p450-cyp2c9; series mostly up to 57.1 µM
- Protocol: The P450 gene superfamily is involved in the metabolism and clearance of xenobiotics. This assay used various human CYP P450 isozymes to measure the dealkylation of various pro-luciferin substrates to luciferin. The luciferin is then measured by luminescence after the addition of a luciferase detection reagent. […] Inhibitors and some substrates limit the production of luciferin, and decrease measured luminescence. […] 8, Detection, 1 sec, ViewLux luminescent read […]
Hit rate of the full screen: of about 16,000 compounds, about 4,000 (25%) were called active. Inconclusive results (about 26%) are left out. Calls come from the whole dose curve; as a rule, active = well fitted curve in the direction sought with a large enough effect; inconclusive = small, poorly fitted or top-dose-only effect, or effect the other way; inactive = no such curve, though single readings can be large or run the other way. The list is a sample of the results.
Parameter call: string, one of true (active), false (inactive)

Check the results log: what was the call for O=S(=O)(N/N=C\c1cn(-c2ccccc2)nc1-c1ccccc1)c1ccccc1 ?
true

Please indicate how the test categorized Clc1ccc2oc(-c3cccnc3)nc2c1 .
false

Could you check what this test reported for COCCn1c(=O)c(-c2ccc(OC)cc2)nc2cnc(Oc3cccc(Cl)c3)nc21 ?
true

Test call for this compound, please: c1cncc(-c2cccnc2)c1
false

Called result for COCCn1c(=O)c(-c2ccc(OC)cc2)nc2cnc(Nc3cccc(OC)c3)nc21
false

I would be grateful if you could indicate the recorded call for O=C(O)c1cc(S(=O)(=O)N2CCCCC2)ccc1F .
false

For CCOC(=O)c1cc2c(C)n(-c3ccc(C)cc3)c(C)c2ccc1=O , what call appears in the results of this test?
true

What was the test verdict on CC(=O)N1CCC[C@@]2(CCN(Cc3ccccc3)C2)C1 ?
false

Assay outcome for COc1ccc(C(=O)N/N=C2/SCC(=O)N2Cc2ccc3c(c2)OCO3)cc1OC : what was it?
true

So what was the verdict on COc1ccc(-c2cc(C(F)(F)F)n3nc(C(=O)NCc4ccco4)c(Cl)c3n2)cc1 in this test?
true

Look up the recorded call for CCCCCn1c(=O)c(C(=O)c2ccccc2)nc2ccccc21 in this test.
true

Assay outcome for CC1CCC(NC(=O)CC(C)(C)Cc2nc3ccccc3c(=O)[nH]2)CC1 (centres undefined) : what was it?
true

Check the results log: what was the call for CCc1nnc(NC(=O)CCC(=O)NCc2ccccc2OC)s1 ?
false

Hi, do you know how O=C(CSc1nc2ccccc2s1)Nc1nccs1 came out in this test?
false

Please share the test call associated with CC(=O)N1CCC2(CCCN(C(=O)Nc3cccc(F)c3)C2)CC1 .
false

Hello, I am checking results. What call was entered for Cn1c(COc2nnc(-c3ccc(Cl)cc3)c3ccccc23)nc2ccccc21 ?
true

Hey, what did the test say about OCCN1CCN(CC/C=C2\c3ccccc3Sc3ccc(C(F)(F)F)cc32)CC1 ?
false

Check the results log: what was the call for O=S(=O)(N/N=C\c1cccn1-c1ccccc1)c1ccc2ccccc2c1 ?
false

Returns: the outcome recorded for COc1ccccc1CNC(=O)Cn1nnc(-c2ccncc2)n1 in this assay.
true

Per the assay record, what outcome was assigned to CN1CCc2c(c3c(n2C)CCN(C)[C@H]3c2ccccc2F)[C@@H]1c1ccccc1F ?
false

Field: outcome | Entry: Cc1c(Br)c([N+](=O)[O-])nn1CC(=O)NCc1cccs1
false

Outcome? COc1ncc2nc(-c3ccc(Cl)cc3)c(=O)n(-c3ccccc3)c2n1
false

I'd appreciate the recorded outcome for Cc1ccc2nc(-c3cccnc3)oc2c1 from this test.
true

Assay result, entry O=c1cc(-c2ccccc2)[nH]n1-c1ccc([N+](=O)[O-])cc1 — outcome?
true

Returns: the outcome recorded for COCCn1c(=O)c(-c2cn(C)c3ccccc23)nc2cnc(Oc3cccc(Cl)c3)nc21 in this assay.
false

Please share the test call associated with Cc1ccc(-c2nn(-c3ccccc3)cc2/C=N/NS(=O)(=O)c2ccccc2)cc1 .
true

Test call for this compound, please: Cc1noc(C)c1C(=O)N1CCC2(CC1)CN(c1ccccc1)C2
false

Identify the outcome logged in this assay for the compound shown: N#Cc1ccccc1Sc1ccccc1N
true

What did the test return for CCn1c(SCC(=O)NC2CCCCC2)nc2c(c1=O)SC(C)C2 (centres undefined) ?
false

How was CCCn1nc(NC(=O)CC(C)C)c2cc3ccccc3nc21 classified in this test?
true

For Cc1ccc2nc(NC(=O)CSc3nc4c(c(=O)n3C)SC(C)C4)sc2c1 (centres undefined) , what call appears in the results of this test?
true

Please let me know the test result on file for CCCn1c(N)[n+](CC(=O)c2ccco2)c2ccccc21 .
false

Hi, sorry to bother you, what did the test record for O=C(CSc1nc2ccccc2s1)NNC(=S)Nc1ccc(Br)cc1 ?
true

Recorded test call requested for CCn1c(SCC(=O)Nc2nc3ccc(C)cc3s2)nc2c(c1=O)SC(C)C2 (centres undefined)
true

Record request — test call for O=C(CSc1nc2ccccc2s1)N1c2ccccc2Sc2ccc(C(F)(F)F)cc21
true

// param item: O=C(O)Cc1cc2ccccc2nc1C(=O)O ; yields the recorded call
false

Name the outcome recorded for C=CCn1c(SCc2ccc3c(c2)OCO3)nc2scc(-c3ccco3)c2c1=O in the assay.
false

Outcome logged for CCOC(=O)Cn1nc(C)n(-c2ccc(C)cc2)c1=O in this assay:
false

Hi, sorry to bother you, what did the test record for O=C(c1ccccc1)c1nc2ccccc2n(CCCn2c(=O)c(C(=O)c3ccccc3)nc3ccccc32)c1=O ?
true

Hi team, can someone confirm the assay call for Cc1noc(C)c1C(=O)N1CCC2(CCCN(c3ccccc3)C2)CC1 ?
false

What was the test verdict on CCOC(=O)Oc1c(OC)cc(C(=O)O[C@H]2C[C@H]3CN4CCc5c([nH]c6cc(OC)ccc56)[C@@H]4C[C@H]3[C@@H](C(=O)OC)[C@@H]2OC)cc1OC ?
false

Given C=CCn1c(SC(C)C(=O)NCc2ccc3c(c2)OCO3)nc2scc(-c3ccccc3)c2c1=O (centres undefined) , state the outcome it received in this test.
true

Write down the call the test reported for this compound. Item: O=C(c1ccccc1)c1ccc(OCC(O)CN2CCN(Cc3ccccc3)CC2)cc1 (centres undefined)
true

Returns: the outcome recorded for Cc1ccc(S(=O)(=O)NC(=O)CSc2nc3ccccc3s2)cc1 in this assay.
true
